Data credit: patent US9670227B2

molecules and their reported IC50
- TESTED ON: Mcl-1 protein (UniProtKB primary accession number: Q07820) (Homo sapiens, UniProt Q07820)
- Sequence (Q07820 whole entry): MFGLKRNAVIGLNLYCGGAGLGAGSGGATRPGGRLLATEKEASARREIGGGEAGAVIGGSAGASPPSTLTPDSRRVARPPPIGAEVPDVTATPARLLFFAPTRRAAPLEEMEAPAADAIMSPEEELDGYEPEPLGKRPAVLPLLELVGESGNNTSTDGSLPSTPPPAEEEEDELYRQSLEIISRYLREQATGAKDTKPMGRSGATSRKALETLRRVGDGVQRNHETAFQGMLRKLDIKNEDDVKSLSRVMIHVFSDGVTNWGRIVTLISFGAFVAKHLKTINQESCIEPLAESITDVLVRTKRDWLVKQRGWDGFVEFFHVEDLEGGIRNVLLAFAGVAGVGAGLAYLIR
- PROTOCOL: Inhibition of Mcl-1 by fluorescence polarisation, Method 1
- Format: binding
- RUN CONDITIONS: fluorescence polarisation; Method 1, or Method 2; read-out: IC50 (M) Mcl-1 FP
RESULT TYPE: IC50

[
  {
    "MOLECULE": "CCNC(=O)NCCCOc1ccc(-c2c(CC)sc3ncnc(OC(Cc4ccccc4)C(=O)O)c23)c(C)c1Cl (stereo not drawn) [Example 404]",
    "VALUE REPORTED": "5.7e-08 M"
  },
  {
    "MOLECULE": "COc1ccccc1CC(Oc1ncnc2sc(-c3ccc(F)c(Cl)c3)c(-c3ccc(OCCN4CCN(C)CC4)c(Cl)c3C)c12)C(=O)O (stereo not drawn) [Example 532]",
    "VALUE REPORTED": "5.9e-08 M"
  },
  {
    "MOLECULE": "COc1ccccc1CC(Oc1ncnc2sc(-c3cccc(Cl)c3F)c(-c3ccc(OCCN4CCN(C)CC4)c(Cl)c3C)c12)C(=O)O (stereo not drawn) [Example 559]",
    "VALUE REPORTED": "5.2e-09 M"
  }
]

* * *

- TESTED ON: Mcl-1 protein (UniProtKB primary accession number: Q07820) (Homo sapiens, UniProt Q07820)
- PROTOCOL: Inhibition of Mcl-1 by fluorescence polarisation, Method 1
- Format: binding
- RUN CONDITIONS: fluorescence polarisation; Method 1, or Method 2; read-out: IC50 (M) Mcl-1 FP
RESULT TYPE: IC50 (M)

[
  {
    "COMPOUND": "CCc1sc2ncnc(O[C@@H](Cc3cccc4ccoc34)C(=O)O)c2c1-c1ccc(OCCN2CCN(C)CC2)c(Cl)c1C",
    "TESTED ON": "Mcl-1 protein (UniProtKB primary accession number: Q07820) (Homo sapiens, UniProt Q07820)",
    "RESULT TYPE": "IC50",
    "VALUE REPORTED": "3.7e-05"
  },
  {
    "COMPOUND": "CCc1sc2ncnc(OC(Cc3cccc4ccoc34)C(=O)O)c2c1-c1ccc(OCCN2CCN(C)CC2)c(Cl)c1C (stereo not drawn)",
    "TESTED ON": "Mcl-1 protein (UniProtKB primary accession number: Q07820) (Homo sapiens, UniProt Q07820)",
    "RESULT TYPE": "IC50",
    "VALUE REPORTED": "8.5e-08"
  },
  {
    "COMPOUND": "COc1ccccc1-c1nccc(COc2ccccc2CC(Oc2ncnc3sc(-c4ccc(F)cc4)c(-c4ccc(OCCN5CCN(C)CC5)c(Cl)c4C)c23)C(=O)OC(C)C)n1 (stereo not drawn)",
    "TESTED ON": "Mcl-1 protein (UniProtKB primary accession number: Q07820) (Homo sapiens, UniProt Q07820)",
    "RESULT TYPE": "IC50",
    "VALUE REPORTED": "6.74e-07"
  }
]

* * *

- Test system: H929 multiple myeloma tumour line
- PROTOCOL: In vitro cytotoxicity, Microculture Tetrazolium Assay
- Type: cell-based
- RUN CONDITIONS: Homo sapiens, NCI-H929, 48 h, H929 cells, 48 hours exposure, MTT; read-out: IC50 (μM) MTT H929
In this section we review reported log10(IC50) values for a set of compounds.
RESULT TYPE: log10(IC50) (log10 of the value in µM)

[
  {
    "COMPOUND": "Cc1c(-c2c(-c3ccc(F)o3)sc3ncnc(OC(Cc4ccccc4OCc4cocn4)C(=O)O)c23)ccc(OCCN2CCN(C)CC2)c1Cl (stereo not drawn)",
    "TESTED ON": "H929 multiple myeloma tumour line",
    "log10(IC50)": -1.20
  },
  {
    "COMPOUND": "Cc1cc(-c2nccc(COc3ccccc3CC(Oc3ncnc4sc(-c5ccc(F)cc5)c(-c5ccc(OCCN(C)C)c(Cl)c5C)c34)C(=O)O)n2)c(C)cn1 (stereo not drawn)",
    "TESTED ON": "H929 multiple myeloma tumour line",
    "log10(IC50)": -2.10
  },
  {
    "COMPOUND": "CCOCCOc1nccc(COc2ccccc2CC(Oc2ncnc3sc(-c4ccc(F)cc4)c(-c4ccc(OCCN5CCN(C)CC5)c(Cl)c4C)c23)C(=O)O)n1 (stereo not drawn)",
    "TESTED ON": "H929 multiple myeloma tumour line",
    "log10(IC50)": -1.74
  },
  {
    "COMPOUND": "Cc1ncc(COc2ccccc2CC(Oc2ncnc3sc(-c4ccco4)c(-c4ccc(OCCN5CCN(C)CC5)c(Cl)c4C)c23)C(=O)O)cn1 (stereo not drawn)",
    "TESTED ON": "H929 multiple myeloma tumour line",
    "log10(IC50)": -0.71
  },
  {
    "COMPOUND": "CCCCNC(=O)COc1ccccc1CC(Oc1ncnc2sc(-c3ccc(F)o3)c(-c3ccc(OCCN4CCN(C)CC4)c(Cl)c3C)c12)C(=O)O (stereo not drawn)",
    "TESTED ON": "H929 multiple myeloma tumour line",
    "log10(IC50)": -1.04
  },
  {
    "COMPOUND": "Cc1c(-c2c(-c3ccc(F)cc3)sc3ncnc(OC(Cc4ccccc4OCc4ccnc(-n5ccnn5)n4)C(=O)O)c23)ccc(OCCN2CCN(C)CC2)c1Cl (stereo not drawn)",
    "TESTED ON": "H929 multiple myeloma tumour line",
    "log10(IC50)": -1.42
  },
  {
    "COMPOUND": "Cc1c(-c2c(-c3ccco3)sc3ncnc(OC(Cc4ccccc4OCc4cc(-c5ccco5)nn4C)C(=O)O)c23)ccc(OCCN2CCN(C)CC2)c1Cl (stereo not drawn)",
    "TESTED ON": "H929 multiple myeloma tumour line",
    "log10(IC50)": -0.78
  },
  {
    "COMPOUND": "CCCCn1nccc1COc1ccccc1CC(Oc1ncnc2sc(-c3ccc(OCC)cc3)c(-c3ccc(OCCN4CCN(C)CC4)c(Cl)c3C)c12)C(=O)O (stereo not drawn)",
    "TESTED ON": "H929 multiple myeloma tumour line",
    "log10(IC50)": -1.19
  },
  {
    "COMPOUND": "Cc1c(-c2c(-c3ccc(F)cc3)sc3ncnc(OC(Cc4ccccc4OCc4ccnc(-c5ccccc5OC(C)C)n4)C(=O)O)c23)ccc(OCCN2CCN(C)CC2)c1Cl (stereo not drawn)",
    "TESTED ON": "H929 multiple myeloma tumour line",
    "log10(IC50)": -2.40
  },
  {
    "COMPOUND": "COCCOCCOCCOc1ccccc1CC(Oc1ncnc2sc(-c3ccc(F)cc3)c(-c3ccc(OCCN4CCN(C)CC4)c(Cl)c3C)c12)C(=O)O (stereo not drawn)",
    "TESTED ON": "H929 multiple myeloma tumour line",
    "log10(IC50)": -0.71
  },
  {
    "COMPOUND": "COc1ccccc1CC(Oc1ncnc2sc(-c3cccc(O)c3)c(-c3ccc(OCCN4CCN(C)CC4)c(Cl)c3C)c12)C(=O)O (stereo not drawn)",
    "TESTED ON": "H929 multiple myeloma tumour line",
    "log10(IC50)": -0.23
  },
  {
    "COMPOUND": "Cc1c(-c2c(-c3ccco3)sc3ncnc(OC(Cc4ccccc4OCCC(F)(F)F)C(=O)O)c23)ccc(OCCN2CCN(C)CC2)c1Cl (stereo not drawn)",
    "TESTED ON": "H929 multiple myeloma tumour line",
    "log10(IC50)": -1.07
  },
  {
    "COMPOUND": "Cc1c(-c2c(-c3ccc(F)cc3)sc3ncnc(OC(Cc4ccccc4OCc4cncnc4)C(=O)O)c23)ccc(OCCN2CCN(C)CC2)c1Cl (stereo not drawn)",
    "TESTED ON": "H929 multiple myeloma tumour line",
    "log10(IC50)": -1.06
  },
  {
    "COMPOUND": "Cc1c(-c2c(-c3ccco3)sc3ncnc(OC(Cc4ccccc4OCc4ccnc(OCc5ccccc5)n4)C(=O)O)c23)ccc(OCCN2CCN(C)CC2)c1Cl (stereo not drawn)",
    "TESTED ON": "H929 multiple myeloma tumour line",
    "log10(IC50)": -1.72
  },
  {
    "COMPOUND": "Cc1c(-c2c(-c3ccco3)sc3ncnc(OC(Cc4ccccc4OCc4ncccn4)C(=O)O)c23)ccc(OCCN2CCN(C)CC2)c1Cl (stereo not drawn)",
    "TESTED ON": "H929 multiple myeloma tumour line",
    "log10(IC50)": -0.29
  },
  {
    "COMPOUND": "CC#Cc1sc2ncnc(OC(Cc3cccc4occc34)C(=O)O)c2c1-c1ccc(OCCN2CCN(C)CC2)c(Cl)c1C (stereo not drawn)",
    "TESTED ON": "H929 multiple myeloma tumour line",
    "log10(IC50)": 0.34
  },
  {
    "COMPOUND": "COc1ccccc1CC(Oc1ncnc2sc(-c3ccc(Cl)cc3)c(-c3ccc(OCCN4CCN(C)CC4)c(Cl)c3C)c12)C(=O)O (stereo not drawn)",
    "TESTED ON": "H929 multiple myeloma tumour line",
    "log10(IC50)": -0.14
  },
  {
    "COMPOUND": "COc1ccnc(COc2ccccc2CC(Oc2ncnc3sc(-c4ccco4)c(-c4ccc(OCCN5CCN(C)CC5)c(Cl)c4C)c23)C(=O)O)c1 (stereo not drawn)",
    "TESTED ON": "H929 multiple myeloma tumour line",
    "log10(IC50)": -0.46
  },
  {
    "COMPOUND": "COCCOCCOCCOc1ccccc1CC(Oc1ncnc2sc(-c3ccc(F)o3)c(-c3ccc(OCCN4CCN(C)CC4)c(Cl)c3C)c12)C(=O)O (stereo not drawn)",
    "TESTED ON": "H929 multiple myeloma tumour line",
    "log10(IC50)": -1.15
  },
  {
    "COMPOUND": "COc1ccccc1CC(Oc1ncnc2sc(-c3ccc(C#N)o3)c(-c3ccc(OCCN4CCN(C)CC4)c(Cl)c3C)c12)C(=O)O (stereo not drawn)",
    "TESTED ON": "H929 multiple myeloma tumour line",
    "log10(IC50)": -0.33
  },
  {
    "COMPOUND": "COc1cccc(COc2ccccc2CC(Oc2ncnc3sc(-c4ccco4)c(-c4ccc(OCCN5CCN(C)CC5)c(Cl)c4C)c23)C(=O)O)n1 (stereo not drawn)",
    "TESTED ON": "H929 multiple myeloma tumour line",
    "log10(IC50)": -1.11
  },
  {
    "COMPOUND": "COc1cccc(CC(Oc2ncnc3sc(-c4ccco4)c(-c4ccc(OCCN5CCN(C)CC5)c(Cl)c4C)c23)C(=O)O)c1 (stereo not drawn)",
    "TESTED ON": "H929 multiple myeloma tumour line",
    "log10(IC50)": 0.39
  },
  {
    "COMPOUND": "Cc1c(-c2c(-c3ccco3)sc3ncnc(OC(Cc4ccccc4OCCc4ccccn4)C(=O)O)c23)ccc(OCCN2CCN(C)CC2)c1Cl (stereo not drawn)",
    "TESTED ON": "H929 multiple myeloma tumour line",
    "log10(IC50)": -0.74
  },
  {
    "COMPOUND": "CCCCn1nccc1COc1ccccc1CC(Oc1ncnc2sc(-c3ccc(N4CCOCC4)nc3)c(-c3ccc(OCCN4CCN(C)CC4)c(Cl)c3C)c12)C(=O)O (stereo not drawn)",
    "TESTED ON": "H929 multiple myeloma tumour line",
    "log10(IC50)": -0.47
  }
]
